Assay system: Glc(a1-6)Glc(a1-6)Glc
Protocol summary: glycan array binding signal (z-score within array); higher = stronger binding
Stated conditions: glycan notation: IUPAC condensed, linker removed
This excerpt belongs to a sample that is enriched for the strongest signals.
This listing pairs binders with measured glycan array binding signal (z-score).
Measured attribute: glycan array binding signal (z-score)

{"Binder": "Clone730PsrP (Streptococcus pneumoniae) (protein) MDHHHHHHHHHHASENLYFQGAMVVGSQTAAATEATAKKVEEDRKKPASDYVASVTNVNLQSYAKRRKRSVDSIEQLLASIKNAAVFSGNTIVNGAPAINASLNIAKSETKVYTGEGVDSVYRVPIYYKLKVTNDGSKLTFTYTVTYVNPKTNDLGNISSMRPGYSIYNSGTSTQTMLTLGSDLGKPSGVKNYITDKNGRQVLSYNTSTMTTQGSGYTWGNGAQMNGFFAKKGYGLTSSWTVPITGTDTSFTFTPYAARTDRIGINYFNGGGKVVESSTT", "Measured attribute": "glycan array binding signal (z-score)", "Observed result": -0.273}
{"Binder": "FaeGac (Escherichia coli) (protein) WMTGDFNGSVDIGGSITADDYRQKWEWKVGTGLNGFGNVLNDLTNGGTKLTITVTGNKPILLGRTKEAFATPVTGGVDGIPHIAFTDYEGASVVLRNPDGETNKKGLAYFVLPMKNAEGTKVGSVKVNASYAGVLGRGGVTSADGELLSLFADGLSSIFYGGLPRGSELSAGSAAAERTKLFGSLSRNDILGQIQRVNANITSLVDVAGSYRENMEYTDGTVVSAAYALGIANGQTIEATFNQAVTTSTQWSAPLNVAITYY", "Measured attribute": "glycan array binding signal (z-score)", "Observed result": 6.96}
